Answer each item with its documented selectivity ratio.
experiment: Selectivity index, ratio of MCC for african green monkey Vero cells to EC50 for Coxsackievirus B4; assay type: toxicity, cell-based; settings: read-out: Selectivity Index
# answer = number (no unit)

Notebook: CC(=O)N1N=C(c2ccc(C)cc2)CC1c1ccc(OCc2ccccc2)cc1 (configuration not stated) , selectivity ratio read as 5

Notebook: CC(=O)N1N=C(c2ccc(Cl)cc2)CC1c1ccc(OCc2ccccc2)cc1 (configuration not stated) , selectivity ratio read as 5

###

tested on: Vesicular stomatitis virus; experiment: Antiviral activity against Vesicular stomatitis virus infected in human HeLa cells assessed as inhibition of virus-induced cytopathicity after 3 days; assay type: functional, organism-based; settings: 72 h
VALUE_KIND: EC50

The reported EC50 value, Vesicular stomatitis virus, for NC(=S)N1N=C(c2ccc(Br)cc2)CC1c1ccc(OCc2ccccc2)cc1 (centres undefined) reads > 20 µg/mL

The reported EC50 value, Vesicular stomatitis virus, for Clc1ccc(C2=NN(c3nc(-c4ccc(Cl)cc4)cs3)C(c3ccc(OCc4ccccc4)cc3)C2)cc1 (centres undefined) reads > 100 µg/mL

The reported EC50 value, Vesicular stomatitis virus, for O=C1CSC(N2N=C(c3ccc(Cl)cc3)CC2c2ccc(OCc3ccccc3)cc2)=N1 (centres undefined) reads > 20 µg/mL

The reported EC50 value, Vesicular stomatitis virus, for Cc1ccc(C2=NN(c3nc(-c4ccc(Cl)cc4)cs3)C(c3ccc(OCc4ccccc4)cc3)C2)cc1 (centres undefined) reads > 20 µg/mL

The reported EC50 value, Vesicular stomatitis virus, for O=C1CSC(N2N=C(c3ccccc3)CC2c2ccc(OCc3ccccc3)cc2)=N1 (centres undefined) reads > 20 µg/mL

The reported EC50 value, Vesicular stomatitis virus, for Cc1ccc(C2=NN(c3nc(-c4ccc(C)cc4)cs3)C(c3ccc(OCc4ccccc4)cc3)C2)cc1 (centres undefined) reads > 100 µg/mL

The reported EC50 value, Vesicular stomatitis virus, for NC(=O)c1ncn([C@@H]2O[C@H](CO)[C@@H](O)[C@H]2O)n1 [RIBAVIRIN] reads 29 µg/mL

The reported EC50 value, Vesicular stomatitis virus, for NC(=S)N1N=C(c2ccccc2)CC1c1ccc(OCc2ccccc2)cc1 (centres undefined) reads > 20 µg/mL

The reported EC50 value, Vesicular stomatitis virus, for NC(=S)N1N=C(c2ccc(Cl)cc2)CC1c1ccc(OCc2ccccc2)cc1 (centres undefined) reads > 100 µg/mL

###

system: Vesicular stomatitis virus; assay: Antiviral activity against Vesicular stomatitis virus infected in human HeLa cells assessed as inhibition of virus-induced cytopathicity after 3 days; assay type: functional, organism-based; settings: 72 h
Answer each item with its documented EC50.

Notebook: Cc1ccc(C2=NN(C3=NC(=O)CS3)C(c3ccc(OCc4ccccc4)cc3)C2)cc1 (stereo not drawn) , EC50 read as > 20 µg/mL

Notebook: Cc1ccc(-c2csc(N3N=C(c4ccc(Cl)cc4)CC3c3ccc(OCc4ccccc4)cc3)n2)cc1 (stereo not drawn) , EC50 read as > 100 µg/mL

Notebook: Clc1ccc(-c2csc(N3N=C(c4ccccc4)CC3c3ccc(OCc4ccccc4)cc3)n2)cc1 (stereo not drawn) , EC50 read as > 20 µg/mL

###

assay: Selectivity index, ratio of MCC for human HEL cells to EC50 for sVaccinia virus; assay type: toxicity, cell-based
VALUE_KIND: selectivity ratio
# answer = number (no unit)

Notebook: CC(=O)N1N=C(c2ccc(Cl)cc2)CC1c1ccc(OCc2ccccc2)cc1 (stereo unspecified) , selectivity ratio read as 3.6
